# Test system: EKVX
# assay: NCI tumour cell line growth inhibition, 48 h
Active and inactive are the calls of the source. Cut-off read from the data, not from the text of the source: active = GI50 up to about 1.1 µM and inactive = higher.
Labels: active, inactive

{"compound": "COc1ccc(CC(=O)NCCc2ccc(OC)c(OC)c2OC)cc1", "answer.label": "inactive"}
{"compound": "C=C=C(C)C(=O)N(C(C)C)C(C)C", "answer.label": "inactive"}
{"compound": "COc1c2c(c(O)c3c4c(c(C)cc13)C1OC3(C(OC)OC5CC(C)(O)C(OC6CC(C)(O)C(O)C(C)O6)C(C)O5)OC1C(OC)(O4)C31CO1)C(=O)C(O)CC2OC1CC(C)(O)C(OC(C)=O)C(C)O1 (centres undefined)", "answer.label": "active"}
{"compound": "CCC12C=CCN3CCC4(C(=C(C(=O)OC)C1)Nc1ccccc14)[C@H]32 (some centres undefined)", "answer.label": "inactive"}

* * *

# Tested on: OVCAR-3
# assay: NCI tumour cell line growth inhibition, 48 h
The source made the active and inactive calls. No stated cut-off is given here; in the data, active = GI50 up to about 1.1 µM and inactive = higher.
Outcome codes: Yes (active), No (inactive)

{"compound": "COC(=O)C1OC(Oc2cc(O)c3c(=O)cc(-c4ccc(O)cc4)oc3c2)C(O)C(O)C1O (stereo not given)", "answer.label": "No"}
{"compound": "O=C(c1ccco1)N(C(=S)OCc1ccccn1)c1ccccc1", "answer.label": "No"}
{"compound": "O=C1NC(c2cccc3ccccc23)Nc2ccc(O)cc21 (stereo not given)", "answer.label": "No"}
{"compound": "CCOC(=O)/C=C(/C(=O)OCC)n1ccc(=O)n(Cc2cnnn2CCCCOC(C)=O)c1=O", "answer.label": "No"}
{"compound": "Cc1cc(N(CCC#N)CCC#N)ccc1/C=N/NC(=O)c1cc(Cl)ccc1O", "answer.label": "No"}
{"compound": "C=CCn1c(=O)c(C)cn(/C(=C/C(=O)OCC)C(=O)OCC)c1=O", "answer.label": "No"}
{"compound": "Cc1cc(NC2=CC(=O)C(=O)c3ccccc32)no1", "answer.label": "No"}
{"compound": "C(/C=N/c1ccccc1)=C(/Nc1ccccc1)C12CC3CC(CC(C3)C1)C2", "answer.label": "No"}
{"compound": "CSc1ccc(NC(=O)Nc2cc(C)ccn2)cc1", "answer.label": "No"}
{"compound": "CC(=O)NC(C)(C)C1CCC(C)CC1 (stereo not given)", "answer.label": "No"}
{"compound": "OC12c3ccccc3C1CCCCCC21OCCCO1 (stereo not given)", "answer.label": "No"}
{"compound": "O=C(NC1C=Nc2ccccc2NC1=O)c1ccccc1Cl (stereo not given)", "answer.label": "No"}
{"compound": "O=P1(C(O)c2ccccc2)N(Cc2ccccc2)[C@@H]2CCCC[C@H]2N1Cc1ccccc1 (stereo not given in full)", "answer.label": "No"}
{"compound": "COc1cccc(C2c3cc4c(cc3OC(N3CCCC3)C2C)OCO4)c1OC (stereo not given)", "answer.label": "No"}
{"compound": "C/C(=N/NC(=O)c1ccccc1Nc1ccccc1C(=O)N/N=C(\\C)c1ccc(C)cc1)c1ccc(C)cc1", "answer.label": "No"}
{"compound": "COc1cc(C2S/C(=C/c3ccccc3)C(=O)N2c2ccc(Cl)cc2)cc(OC)c1OC (stereo not given)", "answer.label": "No"}
{"compound": "COc1ccccc1/C=C1\\CCC(CN(C)C)C1=O (stereo not given)", "answer.label": "No"}
{"compound": "CN1CCC/C1=C1\\C(=O)c2cccn2C1=O", "answer.label": "No"}
{"compound": "CO[C@H]1C[C@H](O[C@H]2CC[C@]3(C=O)[C@H]4CC[C@]5(C)[C@@H](C6=CC(=O)OC6)CC[C@]5(O)[C@@H]4CC[C@]3(O)C2)O[C@H](C)[C@H]1O[C@@H]1O[C@H](CO[C@@H]2O[C@H](CO)[C@@H](O)[C@H](O)[C@H]2O)[C@@H](O)[C@H](O)[C@H]1O", "answer.label": "Yes"}
{"compound": "C=CCn1c(N)c(C#N)c(C#N)c1CCC", "answer.label": "No"}
{"compound": "COc1ccc2c(c1)CC1C3(CCCCC23)CC[N+]1(C)C (stereo not given)", "answer.label": "No"}
{"compound": "COc1cc(/C=C\\c2ccccn2)cc(OC)c1OC", "answer.label": "No"}
{"compound": "CC1(C)CC(=O)C2=C(C1)C(c1ccccc1Cl)C1C(=O)CC(C)(C)CC1(O)O2 (stereo not given)", "answer.label": "No"}
{"compound": "CN1c2ccc(Cl)cc2C(=O)NC1c1ccc([N+](=O)[O-])s1 (stereo not given)", "answer.label": "No"}
{"compound": "COc1ccc(/C=C/c2cnccn2)cc1OC", "answer.label": "No"}
